Assay: Plasma clearance rate in Sprague-Dawley rats
Assay type: ADME, organism-based
Conditions: rat, read-out: Clp
// values below are reported clearance

INSERT INTO assay_data (compoundstructurestring, experimentalendpoint, observed) VALUES
  ('COc1ccccc1-c1ccc(C[C@H](NC(=O)C2(c3cccnc3)CCCC2)C(=O)O)cc1', 'clearance', '24 mL/min/kg'),
  ('COc1ccccc1-c1ccc(C[C@H](NC(=O)C2(c3ccccn3)CCCC2)C(=O)O)cc1', 'clearance', '> 100 mL/min/kg'),
  ('COc1ccccc1-c1ccc(C[C@H](NC(=O)C2(c3cccnc3)CCOCC2)C(=O)O)cc1', 'clearance', '> 100 mL/min/kg'),
  ('COc1ccccc1-c1ccc(C[C@H](NC(=O)C2(c3cnccc3C)CCCC2)C(=O)O)cc1', 'clearance', '> 100 mL/min/kg'),
  ('COc1ccccc1-c1ccc(C[C@H](NC(=O)C2(c3cccnc3C)CCCC2)C(=O)O)cc1', 'clearance', '> 100 mL/min/kg'),
  ('COc1ccccc1-c1ccc(C[C@H](NC(=O)C(C)(C)c2ccccc2)C(=O)O)cc1', 'clearance', '7.5 mL/min/kg');

Lookup: // lookup clearance for COc1ccccc1-c1ccc(C[C@H](NC(=O)C2(c3cccnc3)CCCCC2)C(=O)O)cc1
Found: 82 mL/min/kg

Lookup: Tell me the measured clearance of COc1ccccc1-c1ccc(C[C@H](NC(=O)C2(c3ccncc3)CCCC2)C(=O)O)cc1 , please.
Found: > 100 mL/min/kg

Lookup: Report clearance for COc1ccccc1-c1ccc(C[C@H](NC(=O)C2(c3ccccc3)CCCC2)C(=O)O)cc1 please.
Found: 21.5 mL/min/kg

Lookup: What value of clearance has been reported for the following compound? COc1ccccc1-c1ccc(C[C@H](NC(=O)C2(c3ccc(O)nc3)CCCC2)C(=O)O)cc1
Found: > 100 mL/min/kg

Lookup: Query (compound): COc1ccccc1-c1ccc(C[C@H](NC(=O)C2(c3ccc(C)nc3)CCCC2)C(=O)O)cc1 ; field requested: clearance
Found: > 100 mL/min/kg

====

Experiment: Plasma half-life was determined in Sprague-Dawley rats after 0-8 h administration of the compound
Assay type: ADME, organism-based
Settings: rat
experimentalEndpoint: half-life (min)
Give just the number in min; leave the unit off.

Solved cases (4 shown):
INSERT INTO measurements (compoundstructurestring, observed) VALUES
  ('COc1ccccc1-c1ccc(C[C@H](NC(=O)C2(c3ccc(C)nc3)CCCC2)C(=O)O)cc1', 18),
  ('COc1ccccc1-c1ccc(C[C@H](NC(=O)C2(c3cnccc3C)CCCC2)C(=O)O)cc1', 12),
  ('COc1ccccc1-c1ccc(C[C@H](NC(=O)C2(c3cccnc3C)CCCC2)C(=O)O)cc1', 36),
  ('COc1ccccc1-c1ccc(C[C@H](NC(=O)C2(c3ccncc3)CCCC2)C(=O)O)cc1', 150);

Lookup: Reported half-life, compound COc1ccccc1-c1ccc(C[C@H](NC(=O)C2(c3cccnc3)CCCCC2)C(=O)O)cc1 : ____
Found: 24

Lookup: Value lookup for half-life; key = COc1ccccc1-c1ccc(C[C@H](NC(=O)C2(c3cccnc3)CCCC2)C(=O)O)cc1
Found: 66

Lookup: Recorded half-life of COc1ccccc1-c1ccc(C[C@H](NC(=O)C2(c3ccccc3)CCCC2)C(=O)O)cc1 , please.
Found: 60

Lookup: Requested read-out: half-life. Entry: COc1ccccc1-c1ccc(C[C@H](NC(=O)C(C)(C)c2ccccc2)C(=O)O)cc1
Found: 120
